Sourced from the supplement of paper PMC10567573

B1: ZER1 (parent)
chain: FDGPEAWGVCEPQREEVEERMWAA

# Variants of: B1
# assay-procedure: protein stability index of a GFP-peptide fusion (GPS, HEK-293T) (PSI 1-6); higher = more stable;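 note: lentivirally expressed fusions sorted by FACS into six bins by GFP to DsRed ratio, PSI derived from sequencing read proportions per bin multiplied by bin number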
# measurement-conditions: c terminus: a fixed tail appended
Exercise: for every item that follows, state its recorded protein stability index.
Give bare numbers.

Illustrative cases are given below, each with its answer.
In [3]: df
Out[3]:
   variant_key  recorded_value
0         E18W            2.04
1         A24F            1.96
2         A23Q            2.61
3         E16D            2.14
4          G3F            2.06
5         R20G            2.96

# ---- query variant ----
Record request: protein stability index value, item P4V
2.48
